Origin of values: patent US20250215029A1

Would you mind telling me the reported IC50 of each entry?
tgt: Recombinant STAT6 protein (STAT6 (W123-T658)) (Homo sapiens)
Construct: Recombinant STAT6 protein (STAT6 (W123-T658))
Sequence (P42226 123-658): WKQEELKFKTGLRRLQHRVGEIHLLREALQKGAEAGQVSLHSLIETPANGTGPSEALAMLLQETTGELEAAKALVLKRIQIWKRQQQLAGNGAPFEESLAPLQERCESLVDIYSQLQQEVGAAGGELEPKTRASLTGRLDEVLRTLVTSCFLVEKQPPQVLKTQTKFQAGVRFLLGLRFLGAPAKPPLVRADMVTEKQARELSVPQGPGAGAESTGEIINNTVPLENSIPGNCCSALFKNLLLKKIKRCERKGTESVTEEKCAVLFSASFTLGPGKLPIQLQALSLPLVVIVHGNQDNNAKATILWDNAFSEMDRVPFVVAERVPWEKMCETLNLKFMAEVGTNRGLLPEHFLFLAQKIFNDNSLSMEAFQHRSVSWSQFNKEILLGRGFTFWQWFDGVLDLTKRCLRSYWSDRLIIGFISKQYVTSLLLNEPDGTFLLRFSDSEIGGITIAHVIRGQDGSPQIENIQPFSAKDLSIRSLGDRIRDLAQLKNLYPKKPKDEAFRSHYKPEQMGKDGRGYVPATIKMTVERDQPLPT
procedure_summary: STAT6 Fluorescence Polarization (FP) Assay
Type: binding
particulars: STAT6 (W123-T658) 250 nM, probe 5-FAM-Ap[…]-NH2 2 nM, 45-minute incubation; read-out: STAT6 (FP assay IC50 class)

Guide cases for IC50, answers given:
{"columns": ["molecule", "tgt", "IC50"],
 "data": [
  ["COCC(=O)NC1(c2ccccn2)CN(C(=O)[C@@H]2CC[C@@H]3CCCC[C@H](NC(=O)c4cc5cc(C(F)P(=O)(O)O)ccc5s4)C(=O)N32)C1 (stereo partly drawn)", "Recombinant STAT6 protein (STAT6 (W123-T658)) (Homo sapiens)", "3 to 30 µM"],
  ["CCc1ccncc1C1CN(C(=O)[C@@H]2CC[C@@H]3CCC[C@H](NC(=O)c4cn5cc(CP(=O)(O)O)ccc5n4)C(=O)N32)C1", "Recombinant STAT6 protein (STAT6 (W123-T658)) (Homo sapiens)", "3 to 30 µM"]
]}

Ask: Would you mind telling me what IC50 value was observed for N#C[C@H]1[C@H](c2ccccc2)CN(C(=O)[C@@H]2CC[C@@H]3C[C@@H](N4CCC4)CC[C@H](NC(=O)c4cc5cc([C@@H](F)P(=O)(O)O)ccc5s4)C(=O)N32)C12CC2 (single isomer, unassigned) ?
Reply: ≤ 0.3 µM
